- target or system: glucose-6-phosphatase system (Rattus norvegicus, UniProt F7EWB7)
- Construct: from tissue; host or cells: liver microsomes of male Wistar rats
- Sequence (F7EWB7 1-429): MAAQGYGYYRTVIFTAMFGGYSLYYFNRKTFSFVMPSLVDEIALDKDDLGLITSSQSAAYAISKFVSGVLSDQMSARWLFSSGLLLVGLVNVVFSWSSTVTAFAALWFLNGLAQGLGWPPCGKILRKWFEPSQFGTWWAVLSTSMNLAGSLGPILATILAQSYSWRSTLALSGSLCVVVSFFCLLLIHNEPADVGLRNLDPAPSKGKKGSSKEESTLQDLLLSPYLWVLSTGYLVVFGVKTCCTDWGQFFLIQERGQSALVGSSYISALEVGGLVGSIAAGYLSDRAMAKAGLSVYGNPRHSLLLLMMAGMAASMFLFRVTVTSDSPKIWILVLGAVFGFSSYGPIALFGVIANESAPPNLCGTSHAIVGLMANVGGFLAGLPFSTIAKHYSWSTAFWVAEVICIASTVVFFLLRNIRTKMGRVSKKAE
- assay overview: glucose-6-phosphatase enzyme test in liver microsomes (phosphate released from glucose-6-phosphate)
- Type: biochemical, male Wistar rats
- recorded conditions: rat liver microsome fraction, glucose-6-phosphate 1 mmol/l, pH 7.0, 20 min room temperature; concentration at which 50 % inhibition is printed; read-out: Concentration [M] giving Inhibition 50 [%]
property measured: IC50 (M)

INSERT INTO measurements (compound, quantitative_readout) VALUES
  ('O=C(/C=C/c1cccc(O)c1O)O[C@@H]1C[C@](O)(C(=O)O)C[C@@H](O)[C@H]1O [Compound 2]', 0.00031),
  ('COc1ccc(/C=C/C(=O)O[C@@H]2C[C@](O)(C(=O)O)C[C@@H](O)[C@H]2O)cc1O [Compound 6]', 0.00046);

(P) COc1ccc(/C=C/C(=O)O[C@@H]2C[C@](O)(C(=O)O)C[C@@H](O)[C@H]2O)cc1OC [Compound 17α]
(Q) O=C(/C=C/c1ccc(O)cc1)O[C@@H]1CC(C(=O)O)=C[C@@H](O)[C@H]1O [Compound 25]
Ask: Could you please tell me which of these two has the higher IC50: P or Q ? Provide the label of your selected option as the answer.
Result: P
(P: 0.00068 M, Q: 0.00025 M)

(a) O=C(/C=C/c1ccc(O)c(O)c1O)O[C@@H]1C[C@](O)(C(=O)O)C[C@@H](O)[C@H]1O [Compound 1]
(b) O=C(/C=C/c1ccc(O)c(F)c1)O[C@@H]1C[C@](O)(C(=O)O)C[C@@H](O)[C@H]1O [Compound 10]
Ask: Could you please tell me which of these two has the higher IC50: a or b ? Provide the label of your selected option as the answer.
Result: b
(b: 0.001 M, a: 0.00031 M)

(P) O=C(/C=C/c1cccs1)O[C@@H]1C[C@](O)(C(=O)O)C[C@@H](O)[C@H]1O [Compound 12]
(Q) O=C(/C=C/c1ccc(O)cc1)O[C@@H]1C[C@](O)(C(=O)O)C[C@@H](O)[C@H]1O [Compound 8]
Ask: Could you please tell me which of these two has the higher IC50: P or Q ? Provide the label of your selected option as the answer.
Result: P

(P) O=C(/C=C/c1ccccc1O)O[C@@H]1C[C@](O)(C(=O)O)C[C@@H](O)[C@H]1O [Compound 9]
(Q) O=C(O[C@@H]1C[C@](O)(C(=O)O)C[C@@H](O)[C@H]1O)c1ccc(O)cc1 [Compound 19]
(R) O=C(/C=C/c1ccc(O)cc1)O[C@@H]1C[C@H](C(=O)O)C[C@@H](O)[C@H]1O [Compound 21]
Ask: Please rank these compounds by IC50 in descending order. Record the ranking as a list of labels in the requested order.
Result: Q, P, R
(Q: 0.00092 M, P: 0.00048 M, R: 0.00023 M)

###

- target or system: glucose-6-phosphatase system (Rattus norvegicus)
- Construct: from tissue; host or cells: liver microsomes of male Wistar rats
- assay overview: glucose-6-phosphatase enzyme test in liver microsomes (phosphate released from glucose-6-phosphate)
- Assay type: biochemical, male Wistar rats
- recorded conditions: rat liver microsome fraction, glucose-6-phosphate 1 mmol/l, pH 7.0, 20 min room temperature; concentration at which 50 % inhibition is printed; read-out: Concentration [M] giving Inhibition 50 [%]
property measured: IC50 (M)

INSERT INTO assay_data (smiles_code, quantitative_readout) VALUES
  ('O=C(/C=C/c1c(O)ccc2ccccc12)O[C@@H]1C[C@](O)(C(=O)O)C[C@@H](O)[C@H]1O', 0.00046);

(1) COc1cc(/C=C/C(=O)O[C@@H]2C[C@](O)(C(=O)O)C[C@@H](O)[C@H]2O)ccc1O
(2) O=C(/C=C/c1ccc(O)c(O)c1)O[C@@H]1C[C@](O)(C(=O)O)C[C@@H](O)[C@H]1O
(3) O=C(/C=C/c1ccsc1)O[C@@H]1C[C@](O)(C(=O)O)C[C@@H](O)[C@H]1O
Ask: Please rank these compounds by IC50 in descending order. Record the ranking as a list of labels in the requested order.
Result: 3, 1, 2
(3: 0.00078 M, 1: 0.00041 M, 2: 0.00023 M)

###

- target or system: glucose-6-phosphatase system (Rattus norvegicus, UniProt F7EWB7)
- Construct: from tissue; host or cells: liver microsomes of male Wistar rats
- assay overview: glucose-6-phosphatase enzyme test in liver microsomes (phosphate released from glucose-6-phosphate)
- Type: biochemical, male Wistar rats
- recorded conditions: Concentration 1 × 10^-3 M; rat liver microsome fraction, glucose-6-phosphate 1 mmol/l, pH 7.0; read-out: Inhibition [%]
property measured: inhibition at 1000 µM (%)

INSERT INTO results (smiles_code, quantitative_readout) VALUES
  ('O=C(O)CC[C@]1(O)C[C@@H](O)[C@@H](O)[C@H](OC(=O)/C=C/c2ccc(O)cc2)C1', 45),
  ('O=C(/C=C/c1ccc(O)cc1)N[C@@H]1CC(C(=O)O)=C[C@@H](O)[C@H]1O', 15);

(1) O=C(/C=C/c1cccnc1)O[C@@H]1C[C@](O)(C(=O)O)C[C@@H](O)[C@H]1O
(2) O=C(/C=C/c1ccc(O)c(F)c1)O[C@@H]1C[C@](O)(C(=O)O)C[C@@H](O)[C@H]1O
Ask: Pick one, 1 or 2 : lowest reported inhibition at 1000 µM. Provide the label of your selected option as the answer.
Result: 1
(1: 20%, 2: 50%)

###

- target or system: glucose-6-phosphatase system (Rattus norvegicus, UniProt F7EWB7)
- Construct: from tissue; host or cells: liver microsomes of male Wistar rats
- assay overview: glucose-6-phosphatase enzyme test in liver microsomes (phosphate released from glucose-6-phosphate)
- Assay type: biochemical, male Wistar rats
- recorded conditions: rat liver microsome fraction, glucose-6-phosphate 1 mmol/l, pH 7.0, 20 min room temperature; concentration at which 50 % inhibition is printed; read-out: Concentration [M] giving Inhibition 50 [%]
property measured: IC50 (M)

INSERT INTO assay_data (molecule, property_measured, quantitative_readout) VALUES
  ('O=C(O[C@@H]1C[C@](O)(C(=O)O)C[C@@H](O)[C@H]1O)c1ccc(OCc2ccccc2)cc1 [Compound 18]', 'IC50', 0.00068),
  ('O=C(/C=C/c1cc(O)ccc1O)O[C@@H]1C[C@](O)(C(=O)O)C[C@@H](O)[C@H]1O [Compound 3]', 'IC50', 0.00068),
  ('O=C(/C=C/c1ccc(O)cc1O)O[C@@H]1C[C@](O)(C(=O)O)C[C@@H](O)[C@H]1O [Compound 4]', 'IC50', 0.00068),
  ('O=C(/C=C/c1cccc(O)c1)O[C@@H]1C[C@](O)(C(=O)O)C[C@@H](O)[C@H]1O [Compound 7]', 'IC50', 0.00053);

The values you see were collected from patent US5451573A.
